Numbers sourced from ChEMBL document CHEMBL3351906.

System: U-251
Experiment: Inhibition of cell proliferation of human U251 cells assessed as cell viability at 100 uM after 72 hrs by sulforhodamine B assay
Type: functional
Details: U-251, 72 h, read-out: Activity
Measured viability at 100 µM, listed per entry for reference.

>  <compound>
C/C=C(\C)C(=O)O[C@H]1[C@H](O)[C@]2(COC(C)=O)[C@H](O)C[C@]3(C)C(=CC[C@@H]4[C@@]5(C)CC[C@H](O[C@@H]6O[C@H](C(=O)O)[C@@H](O[C@@H]7O[C@H](CO)[C@@H](O)[C@H](O)[C@H]7O)[C@H](O)[C@H]6O[C@@H]6O[C@H](CO)[C@@H](O)[C@H](O)[C@H]6O)[C@](C)(CO)[C@@H]5CC[C@]43C)[C@@H]2CC1(C)C

>  <tested-on>
U-251

>  <viability at 100 µM / %>
61.1

$$$$
>  <compound>
CC1(C)CC[C@]2(C(=O)O)[C@H](O)C[C@]3(C)C(=CC[C@@H]4[C@@]5(C)CC[C@H](O)C(C)(C)[C@@H]5CC[C@]43C)[C@H]2C1

>  <tested-on>
U-251

>  <viability at 100 µM / %>
33.7

$$$$
>  <compound>
CC(C)=CCC[C@](C)(O)[C@H]1CC[C@]2(C)[C@@H]1[C@H](O)C[C@@H]1[C@@]3(C)CC[C@H](O[C@@H]4O[C@H](CO)[C@@H](O)[C@H](O)[C@H]4O[C@@H]4O[C@H](CO)[C@@H](O)[C@H](O)[C@H]4O)C(C)(C)[C@@H]3CC[C@]12C

>  <tested-on>
U-251

>  <viability at 100 µM / %>
99.1

$$$$
>  <compound>
CC(C)=CCC[C@](C)(O[C@@H]1O[C@H](CO)[C@@H](O)[C@H](O)[C@H]1O)[C@H]1CC[C@]2(C)[C@@H]1[C@H](O)C[C@@H]1[C@@]3(C)CC[C@H](O[C@@H]4O[C@H](CO)[C@@H](O)[C@H](O)[C@H]4O[C@@H]4O[C@H](CO)[C@@H](O)[C@H](O)[C@H]4O)C(C)(C)[C@@H]3CC[C@]12C [GINSENOSIDE RD]

>  <tested-on>
U-251

>  <viability at 100 µM / %>
78.4

$$$$
